Where do these numbers come from? They come from PubChem BioAssay (NCI).

# Tested on: HT29 colon
# protocol notes: NCI-60 one-dose screen, 48 h (100 = growth as untreated, 0 = no growth, -100 = all killed)
# condition info: 10 µM unless noted
The panel holds about 83,000 compounds, 20% with a hit somewhere; the sample as a whole holds those more often.
Binarize growth at 30%; below is MET, at or above is NOT MET.

stdin: For this molecule, is growth lower than 30%? CC1(C)O[C@H]2OC3CCC(=O)CC3(O)[C@H]2O1 (stereo not given in full)
stdout: NOT MET

====

# Tested on: SF-268 CNS
# protocol notes: NCI-60 one-dose screen, 48 h (100 = growth as untreated, 0 = no growth, -100 = all killed)
# condition info: 10 µM unless noted
This is part of a sample that, as a whole, favours compounds with a hit. Of some 83,000 tested, about 20% had one in any assay.
Use 80% as the dividing line for growth, with the line itself on the yes side and lower values as no.

stdin: Textbook exercise: given the entry `CC[C@H](Nc1nc(N)nc(C)c1C#N)c1nc2cccc(NCCCCCC(=O)NO)c2c(=O)n1-c1ccccc1` , state whether its growth is greater than or equal to 80%.
stdout: no

***
stdin: Textbook exercise: given the entry `O=C(Nc1ccc(F)cc1)Nc1ccccc1CNc1nc(Nc2ccc(OCCN3CCCC3)cc2)ncc1Cl` , state whether its growth is greater than or equal to 80%.
stdout: no

stdin: Then what about the compound `COc1cc(Nc2c3ccc(Cl)cc3nc3ccc(OC)cc23)c2ncccc2c1` ?
stdout: no

stdin: Then what about the compound `Fc1ccc(CNc2c3ccccc3nc3ccccc23)cc1` ?
stdout: no

stdin: Then what about the compound `CN1CCN(Cc2ccc(NC(=O)c3cncc(C#Cc4cncc5ncccc45)c3)cc2C(F)(F)F)CC1` ?
stdout: no

stdin: Then what about the compound `C=C1C(=O)O[C@H]2[C@H]1CC/C(COC(=O)NCc1ccc(Cn3c(=O)sn(-c4ccc(OC)cc4)c3=O)cc1)=C\CC[C@@]1(C)O[C@@H]21` ?
stdout: yes

stdin: Then what about the compound `CC(C)(C)c1cc(C=Nc2cccc(C(F)(F)F)c2)c(O)c(C(C)(C)C)c1` ?
stdout: yes

stdin: Then what about the compound `O=C(NCc1ccccc1O)c1cccc2ccccc12` ?
stdout: yes
